Entry source: PubChem BioAssay AID463173

# Tested on: DeltatarO mutant
# Experiment: S. aureus survival, RN4220 and DeltatarO strains – OD600, teichoic acid synthesis inhibitors, primary screen (AID 463173)
# Condition: S. aureus RN4220 wild type/DeltatarO growth, OD600, 18 h, screened at 18.75 µg/mL (by protocol)
The campaign covered roughly 52,000 compounds. About 4,300 (8.3%) were called active. Rule as the data show it: active = survival mostly below about 52% (no sharp cut-off); inactive = mostly above about 56%. The full list was thinned out, with actives kept by preference.
# output must be one of active, inactive

* COc1ccc(NC(=O)c2ccco2)cc1NC(=O)COc1ccc(C)c(C)c1 | inactive
* COc1ccc(NC(=O)c2ccco2)cc1NC(=O)c1cccc(C)c1OC | active

Called result for `CCCCOc1cccc(C(=O)Nc2cc(NC(=O)c3ccco3)ccc2OC)c1`
active

Called result for `Cc1ccc(CCNC(=O)NCc2noc3ccccc23)cc1`
inactive

Called result for `COc1ccc(NC(=O)c2ccco2)cc1NC(=O)c1cc(OC)c(OC)c(OC)c1`
inactive

Called result for `COc1ccc(NC(=O)c2ccco2)cc1NC(=O)COc1ccccc1`
active

---

# Test system: DeltatarO mutant
# Experiment: S. aureus survival, RN4220 and DeltatarO strains – OD600, teichoic acid synthesis inhibitors, primary screen (AID 463173)
# Condition: S. aureus RN4220 wild type/DeltatarO growth, OD600, 18 h, screened at 18.75 µg/mL (by protocol)
In all, about 52,000 compounds went through this assay and about 4,300 (8.3%) were called active. Rule as the data show it: active = survival mostly below about 52% (no sharp cut-off); inactive = mostly above about 56%. This is one part of a sample in which actives are shown more often than they occur.
# output must be one of Y (active), N (inactive)

Worked examples, 6 compounds total:
* COc1cccc(C2=NN(C(C)=O)C(c3cn(-c4ccccc4)nc3-c3cccs3)C2)c1 (stereo unspecified) | N
* C=Cn1c(C)c(C(C#N)=C(C#N)C#N)c2c1CCCC2 | Y
* CCCCN(CCCNC(=O)c1c(C)oc2nc[nH]c(=O)c12)Cc1ccccc1 | Y
* Cc1oc2ncn(C)c(=O)c2c1C(=O)NCCCN(Cc1ccccc1)C(C)C | N
* CCN(Cc1ccccc1)C(=O)CN1C(=O)COc2ccc(S(=O)(=O)NC3CCCC3)cc21 | N
* CN1CCN(C(=O)c2cnn(-c3cccc(Cl)c3)c2C2CCN(C(=O)OC(C)(C)C)CC2)CC1 | N

Called result for `COc1ccccc1NC(=O)c1ccc2[nH]c(C)cc(=O)c2c1`
N

Called result for `Cc1ccc(CNC(=O)CCCc2nnc3n(CC(C)C)c(=O)c4sccc4n23)cc1`
N

Called result for `O=C(COc1ccc(Br)cc1)N/N=C1\SCC(=O)N1c1ccc(F)cc1`
N

Called result for `CCOc1ccc(-c2nc3ccccc3c(=O)o2)cc1`
N

Called result for CC1Cc2cc(C(=O)NC3CCCCC3)ccc2O1 (stereo unspecified)
N

---

# System: DeltatarO mutant
# Experiment: S. aureus survival, RN4220 and DeltatarO strains – OD600, teichoic acid synthesis inhibitors, primary screen (AID 463173)
# Condition: S. aureus RN4220 wild type/DeltatarO growth, OD600, 18 h, hits give low values, screened at 18.75 µg/mL (by protocol)
Out of some 52,000 compounds screened, about 4,300 (8.3%) were called active. The entries come from a sample that favours actives as a whole.
survival values for the compounds below.
Please state the figure in %; there is no need to write the unit.

Example results:
• COc1ccccc1CCNC(=O)Cc1c(C)c2cc3c(C)coc3cc2oc1=O = 68
• CCOC(=O)c1ccc(NC(=O)CS(=O)(=O)Cc2nc(-c3ccc(C)cc3)oc2C)cc1 = 95

Using the record for `CN(C)S(=O)(=O)c1ccc2c(c1)nnn2CCNC(=O)Nc1ccc(Br)cc1` , report its survival.
83

Using the record for `COc1cccc(CNC(=O)c2nn(C)c3c2CSc2ccccc2-3)c1` , report its survival.
75

Using the record for `CS(=O)(=O)n1nc(-c2ccco2)nc1NCc1ccccc1Cl` , report its survival.
61

Using the record for `CCOC(=O)c1c(C)oc2nc(C)nc(NCC3CCN(Cc4ccccc4C)CC3)c12` , report its survival.
86

Using the record for `Cc1c(Cl)cccc1NC(=O)c1ccc(NC(=O)N2CCSc3ncccc32)cc1` , report its survival.
72

---

survival values for the compounds below.
# System: DeltatarO mutant
# Experiment: S. aureus survival, RN4220 and DeltatarO strains – OD600, teichoic acid synthesis inhibitors, primary screen (AID 463173)
# Condition: S. aureus RN4220 wild type/DeltatarO growth, OD600, 18 h, hits give low values, screened at 18.75 µg/mL (by protocol)
The whole screen tested about 52,000 compounds, of which about 4,300 (8.3%) were called active. Only a selection was taken, and actives are over-represented in it overall.
Please state the figure in %; there is no need to write the unit.

Example results:
- CCC(=O)N1CCc2cc(Br)cc(S(=O)(=O)CCC(=O)NCCc3ccccc3Cl)c21: 72
- COc1cc2c(cc1OC)C(c1ccc(F)cc1)N(c1ccc(F)cc1)C(=O)C2 (stereo unspecified): 105

Using the record for `CCC(=O)N1CCc2cc(Br)cc(S(=O)(=O)NCCc3ccccc3)c21` , report its survival.
43

Using the record for `O=S(=O)(c1ccc2nc(N3CCN(c4ccccc4)CC3)ccc2c1)N1CCCCC1` , report its survival.
6

Using the record for `CCC(=O)N1CCc2cc(Br)cc(S(=O)(=O)NCc3ccccc3)c21` , report its survival.
66

Using the record for COc1ccc(C2c3cc(OC)c(OC)cc3CC(=O)N2c2ccc(C)c(F)c2)cc1 (stereo unspecified) , report its survival.
79

---

# System: DeltatarO mutant
# Experiment: S. aureus survival, RN4220 and DeltatarO strains – OD600, teichoic acid synthesis inhibitors, primary screen (AID 463173)
# Condition: S. aureus RN4220 wild type/DeltatarO growth, OD600, 18 h, screened at 18.75 µg/mL (by protocol)
The campaign covered roughly 52,000 compounds. About 4,300 (8.3%) were called active. Rule as the data show it: active = survival mostly below about 52% (no sharp cut-off); inactive = mostly above about 56%. Many of the other results were omitted from the sample, so actives are more common in it than they were.
# output must be one of active, inactive

Worked examples, 6 molecules total:
* CCc1cccc(C)c1Nc1c(-c2cccc(O)c2)nc2nc(C)cc(C)n12 | inactive
* CCc1ccc(-c2cc(C)no2)cc1S(=O)(=O)Nc1ccc(Cl)cc1 | inactive
* CCc1ccc(-c2cc(C)no2)cc1S(=O)(=O)Nc1ccc(Cl)cn1 | active
* COC(=O)c1c(SC)nc2ccccc2c1OCc1ccc(Cl)cc1 | inactive
* N/N=C1\C(=N/O)CCc2nonc21 | inactive
* CSc1ncc(C(=O)N2CCN(c3cc(C)ccc3C)CC2)c(C)n1 | inactive

Called result for `COc1ccc(-c2ccc(Nc3ccc(C(=O)N4CCCCCC4)cc3)nn2)cc1`
inactive

Called result for `COc1ccc(NS(=O)(=O)c2ccc3c(c2)CCN3C(=O)CCC(=O)O)cc1Cl`
inactive

Called result for `CCc1ccc(-c2cc(C)no2)cc1S(=O)(=O)Nc1ccc(C)cn1`
inactive

Called result for `COc1ccc(NC(=O)c2sc3nc(C)c(C(=O)Nc4ccc(C)cc4C)c(-c4sccc4C)c3c2N)cc1`
inactive

---

# Test system: DeltatarO mutant
# Experiment: S. aureus survival, RN4220 and DeltatarO strains – OD600, teichoic acid synthesis inhibitors, primary screen (AID 463173)
# Condition: S. aureus RN4220 wild type/DeltatarO growth, OD600, 18 h, hits give low values, screened at 18.75 µg/mL (by protocol)
Among all 52,000 compounds or so, about 4,300 (8.3%) were called active. Many of the other results were omitted from the sample, so actives are more common in it than they were.
survival strictly less than 70% = 1 (yes). Otherwise 0 (no).

Worked examples, 3 molecules total:
• Cc1ccccc1OCc1ccc(-c2nc(C#N)c(N3CCC(C(N)=O)CC3)o2)o1 = 1 (yes)
• CS(=O)(=O)CCC(C(=O)Nc1cccc(C(F)(F)F)c1)N1Cc2ccccc2C1=O (stereo not given) = 1 (yes)
• CC(C(=O)Nc1ccc(OC(F)(F)F)cc1)N1Cc2ccccc2C1=O (stereo not given) = 1 (yes)

Confirm or reject: survival of `Cc1ccc(-n2ncc(C(=O)NCCCN3CCN(C)CC3)c2C2CCN(C(=O)OC(C)(C)C)CC2)cc1` lies strictly below 70%
0 (no)

Confirm or reject: survival of CCOc1ccc(NC(=O)C(CC(C)C)N2Cc3ccccc3C2=O)cc1 (stereo not given) lies strictly below 70%
0 (no)

Confirm or reject: survival of `CCN1CCN(c2oc(-c3ccc(COc4ccc(OC)cc4)o3)nc2C#N)CC1` lies strictly below 70%
1 (yes)

---

# Tested on: DeltatarO mutant
# Experiment: S. aureus survival, RN4220 and DeltatarO strains – OD600, teichoic acid synthesis inhibitors, primary screen (AID 463173)
# Condition: S. aureus RN4220 wild type/DeltatarO growth, OD600, 18 h, screened at 18.75 µg/mL (by protocol)
Screen size: about 52,000 compounds; about 4,300 (8.3%) were called active. Cut-off read from the data, not from the text of the source: active = survival mostly below about 52% (no sharp cut-off); inactive = mostly above about 56%. Many of the other results were omitted from the sample, so actives are more common in it than they were.
# output must be one of active, inactive

Worked examples, 4 molecules total:
• O=C(CN1C(=O)CCn2nc(-c3ccccc3)cc21)NCc1ccccc1 = inactive
• Cn1cc(-c2cc3n(n2)CCC(=O)N3CCCC(=O)Nc2ccccc2Cl)c2ccccc21 = active
• Cn1cc(-c2cc3n(n2)CCC(=O)N3CCCC(=O)NCc2ccccc2)c2ccccc21 = inactive
• Cc1cccc(CNC(=O)CCCN2C(=O)CCn3nc(-c4cn(C)c5ccccc45)cc32)c1 = active

Called result for `CN(C)c1ccc(CNC(=O)CN2C(=O)CCn3nc(-c4cn(C)c5ccccc45)cc32)cc1`
inactive
